endpoint-name: melting point

Request: Quickly give me recorded melting point for Cc1cc(-c2ccccc2)n2nc(SC(F)(F)F)nc2n1
Response: 91 to 93 °C

Request: Identify measured melting point associated with COc1ccc(CCN(C)C(C)(C)CO)cc1
Response: 40 °C

Request: Please give the documented melting point of Oc1cc(-c2ccco2)c2oc(-c3ccc(O)c(F)c3)nc2c1
Response: 155 °C

Request: Please give the documented melting point of Cc1cc(-c2ccc(S(N)(=O)=O)cc2)n(-c2ccc(F)cc2)c1
Response: 126 to 127 °C

Request: Output melting point of COC(=O)NNC(=O)C=Cc1ccccc1
Response: 165 °C

Request: Fill in melting point for record CC(C)(C)OC(=O)[C@H]1CC[C@H](c2ccccc2)N1C(=O)CNC(=O)Nc1cccc(C(=O)O)c1 (racemic)
Response: 236 °C

Request: Annotate the compound O=c1oc(-c2cccc(Cl)c2)cc(O)c1SCCc1ccccc1 with its measured melting point.
Response: 125 to 127 °C

Request: Given the compound COc1ccc(Nc2nc(Cl)nc(OCC3CCCCC3)n2)cc1Cl , write its reported melting point.
Response: 114 °C

Request: Identify the reported melting point for the following entry. CN(C)CCc1[nH]c2ccccc2c1CC(N)=O
Response: 114 to 117 °C

Request: Identify measured melting point corresponding to O=C(NO)c1ccccc1Nc1c(Cl)cccc1Cl
Response: 171 to 173 °C

Request: Specify melting point for CC(O)C#Cc1ccc(Cl)cc1 (stereo unspecified) and stop.
Response: 71 to 72 °C

Request: Given the compound CCCCCCCCOc1ccc(C(=O)Oc2ccc(C3CCC(O)CC3)cc2)cc1 (stereo unspecified) , write its reported melting point.
Response: 111 to 112 °C

Request: // fetch melting point given entry COC(=O)c1ccc(C(F)(F)F)cc1C#N
Response: 52 °C

Request: Recall and state the measured melting point for COc1cc(Nc2nsc(-c3ccccc3)n2)ccc1-c1cnco1 .
Response: 260 to 261 °C

Request: Give the reported melting point for this compound. OC[C@H]1OC[C@@H](n2cnc3cc(Cl)c(Cl)cc32)[C@H](O)[C@@H]1O
Response: 160 to 162 °C

Request: Give the reported melting point for this compound. CC(=O)NC[C@H]1CN(c2ccc(-n3cnnc3S)c(F)c2)C(=O)O1
Response: 269 to 271 °C

Request: Specify measured melting point for CCCn1cc(-c2c(-c3ccccc3)nn3ccncc23)ccc1=O .
Response: 165 to 166 °C

Request: Give melting point for C[Si](C)(C)c1c(Br)cnc2c1CCO2
Response: 92 to 94 °C

Request: Answer with the recorded melting point for the compound listed here: CCN(CC)C(=O)c1ccc2ccccc2c1-c1ccccc1C
Response: 150 to 152 °C

Request: Give recorded melting point. CC12CCC(OC(=O)c3ccc(O)cc3)CC1=CCC1C2CCC2(C)C(=NO)CCC12 (stereo unspecified)
Response: 177 to 182 °C

Request: Quick one: give measured melting point for O=C(OC(C(F)(F)F)C(F)(F)F)c1c2ccccc2nc2ccccc12
Response: 143 to 145 °C

Request: Tell me its melting point given COc1ccc(CF)c(CN(C(C)=O)c2cc(F)ccc2Oc2ccccc2)c1 as the entry.
Response: 71 to 72 °C

Request: Answer with reported melting point of COc1ccc(Cl)cc1C(=O)NCCC1CCN(S(=O)(=O)NC(=O)NC2CC2)CC1
Response: 138 to 139 °C

Request: Report measured melting point; entry is CCCCCCCCCCCCCCCCOCCOCCOC(=O)NCc1ccccn1
Response: 57 to 59 °C

Request: Note down melting point recorded for CCCCCCCCCCCCc1nnn[nH]1
Response: 68 to 70 °C

Request: Using known records, supply melting point for CCCCCCCCC(O)CNCCCCCCNCC(O)CCCCCCCC (stereo unspecified)
Response: 118 to 127 °C

Request: Supply reported melting point belonging to this compound: CNC(=O)c1ccc(Nc2nc(Nc3cc4c(cc3OC)CCN(CC(=O)N(C)C)CC4)ncc2Cl)c(OC)c1
Response: 138 to 147 °C

Request: # return recorded melting point for input CCCCCCCCCCCCNC(=O)N(C)C[C@H](O)[C@@H](O)[C@H](O)[C@H](O)CO
Response: 117 °C

Request: Input CC(=O)Nc1c(C(=O)Cc2ccccc2)[nH]c2cc(Cl)ccc12 , output reported melting point.
Response: 258 to 259 °C

Request: Give a short answer stating reported melting point for COc1ccc(CN(C)CC(=O)Nc2ccc([N+](=O)[O-])cc2)cc1OC .
Response: 120 °C

Request: For COc1ccc(N2CCN(c3c(C)c(C)c4c(c3C)CC(C)(COC=O)O4)CC2)cc1 (stereo unspecified) , write its melting point.
Response: 120 to 124 °C

Request: Name the recorded melting point of the item O=C(O)CCCc1ccc(C(NS(=O)(=O)c2ccc(Cl)cc2)C2CCCCC2)cc1 (single isomer, unassigned; (+)) in your answer.
Response: 165 to 166 °C

Request: Tell me its melting point given OC(CCCn1ccnc1)c1ccccc1 (stereo unspecified) as the entry.
Response: 205 to 207 °C

Request: Tell me melting point reported for Nc1ccc(CCCn2cnnc2)cc1
Response: 150 to 153 °C

Request: Check the records and state melting point for Cc1ccc(S(=O)(=O)Oc2cc(C(C)(C)C)c(SC3=C(O)CC(CCc4ccc(O)cc4)(C4CCCCC4)OC3=O)cc2C)cc1 (stereo unspecified)
Response: 105 °C

Request: Answer with the recorded melting point of O=Cc1nn(-c2ccc(Br)cc2)c2c1CCCC2 only.
Response: 120 to 121 °C

Request: Fill in melting point for record Cc1cc(NC2=NCCN2CCNC(=O)Nc2ccc(C(=O)O)cc2)nc(C)n1
Response: 160 °C

Request: Give recorded melting point. CC1(C)OC[C@H](CCOc2ccc(-c3nc4c5ccccc5c5ccccc5c4[nH]3)cc2)O1
Response: 196 to 198 °C

Request: Supply melting point value. Item: CCCCNC(=O)[C@@H](C[C@H](O)[C@@H](N)CC1CCCCC1)C(C)C
Response: 88.5 to 90 °C

Request: Answer with the recorded melting point of Cc1cc2cc(CN3CCC(C(=O)N4CCCCC4)CC3)cnc2cc1NC(=O)c1ccc(-c2ccc(F)cc2)cc1 only.
Response: 250 °C

Request: Provide one value: measured melting point of CCOC(=O)Cc1sc(C(C)(C)c2c(Cl)cc(-n3ncc(=O)[nH]c3=O)cc2Cl)nc1-c1ccccc1
Response: 148 °C

----------
Record form. Attribute: melting point. Fill in for each entry.

Request: Given O=[N+]([O-])c1cnn2c(-c3ccccc3)nc3ccccc3c12 , respond with its melting point.
Response: 187 to 188 °C

Request: Annotate the compound CC(C)(OCc1nn(C2CCCc3ccccc32)c2ccccc12)C(=O)O (centres undefined) with its measured melting point.
Response: 132 to 134 °C

Request: Give recorded melting point. CC(=O)OC1CC2(C)C(=O)CCC2C2C=CC3=CC(=O)CCC3C12 (centres undefined)
Response: 246 to 248 °C

Request: # return recorded melting point for entry O=c1oc(-c2cccc(OC(F)(F)F)c2)cc(O)c1SCc1ccccc1
Response: 128 to 132 °C

Request: Input CCCCCS(=O)(=O)NC(=O)CCc1ccc(OCCOC)cc1OCC1CCCCC1 , output reported melting point.
Response: 81 to 82 °C

Request: Recall and state the measured melting point for O=C(CBr)CS(=O)(=O)C(c1ccc(Cl)cc1)c1ccc(Cl)cc1 .
Response: 122 to 123 °C

Request: Return melting point for the following compound: O=C(O)c1ccc(NC(=O)c2ccc(Cl)cc2Cl)cc1Cl
Response: 171 to 175 °C

Request: Check the records and state melting point for O=C(c1ccccc1Cl)c1ccccc1I
Response: 62 to 64 °C

Request: Answer with the recorded melting point of CC[C@H]1CN(c2c(F)c(N)c3c(=O)c(C(=O)O)cn(C4CC4)c3c2F)C[C@H]1CNCCC(=O)C(F)(F)F (relative stereo) only.
Response: 145 to 146 °C

----------
I'd appreciate it if you could supply melting point values for the items below.

Request: Supply reported melting point belonging to this molecule: COC(=O)COc1ccc(C(=O)CBr)c2ccccc12
Response: 99 to 101 °C

Request: Give recorded melting point. O=C(O)C(=O)c1ccc(OCCCCCOc2ccccc2)cc1
Response: 69 to 70 °C

Request: Report measured melting point; entry is COc1ccc(-c2n[nH]c3c2c(=O)n(-c2ccccc2)c2ncccc32)cc1
Response: > 300 °C

Request: For the molecule CC(C)n1nc(-c2c(-c3ccccc3)nn3ccc(C(=O)N4CCC(c5ccccc5)CC4)cc23)ccc1=O , give its measured melting point value.
Response: 184 to 185 °C

Request: Return value of melting point for input CC(C)(C)C(NC(=O)c1ccc(Cl)cc1)NC(=NC#N)NCc1ccccn1 (stereo unspecified) , no commentary.
Response: 184 to 185 °C

Request: Read the entry CC1(C)CCOC1=C(n1ccnc1)S(=O)(=O)c1ccc(Cl)cc1 and write its reported melting point.
Response: 192 to 194 °C

Request: In one line, give reported melting point of the entry CCc1c(C)[nH]c2cc(OCCOc3ccccc3)c(Cl)cc2c1=O .
Response: 290 to 292 °C

Request: Assign melting point to the following record: O=C(C=c1sc2n(c1=O)Cc1ccccc1N=2)Oc1ccccc1
Response: 194 to 195 °C

Request: Name the recorded melting point of the molecule listed here: CC12C=CC(=O)C=C1CCC1C2CCC2(C)C1CCC21CC(=O)CO1 (stereo unspecified)
Response: 147 to 153 °C

Request: Respond only with melting point recorded for CC(=O)OC(c1ccc(Cl)c(Cl)c1)C(Cl)(Cl)Cl (stereo unspecified)
Response: 85 to 86 °C

Request: Report melting point for CCOC(=O)[C@H](Cc1ccc(OC)c(OC)c1)NC(=O)c1ccnc(Br)c1
Response: 108 to 109 °C

Request: Report measured melting point; entry is O=C1C=CC=C2CN=CC=C12
Response: 232 to 234 °C

Request: Retrieve melting point measured for COc1cccc([C@H](O)C[C@@H]2CCCN2C)c1 (relative stereo) and print it.
Response: 79 to 82 °C

Request: Recall and state the measured melting point for CCOC(=O)c1ccc(-c2csc(-c3ccc(C(F)(F)F)cc3)n2)cc1 .
Response: 163 to 164 °C

Request: Consider the molecule CCCCc1nc2ccccn2c(=O)c1-c1ccc(OS(=O)(=O)C(F)(F)F)cc1 . State its measured melting point.
Response: 106 to 108 °C

Request: Supply melting point value. Item: CCOC(=O)c1ccc(OCCCN2CCN(c3ccc(Cl)nn3)CC2)cc1
Response: 125 to 127 °C

Request: Tell us which melting point value is on record for Cc1c(N)cc(C(C)(C)C)cc1N
Response: 97.3 °C

Request: Given the molecule CCCCCCCCCCCCCCCCCCOCCO , write its reported melting point.
Response: 39 to 41 °C

Request: Indicate its recorded melting point; the molecule in question is O=C1OCN(C(=O)OCc2ccccc2)[C@H]1Cc1ccccc1
Response: 85.5 to 86.5 °C

Request: Name the recorded melting point of the molecule listed here: COc1ccc(C(=O)Nc2nc3ccc(N(C)C)cc3c(NCc3ccco3)c2C#N)cc1
Response: 195 °C

Request: Entry O=C1CCC(c2ccccc2)c2cc(Cl)ccc2N1 (stereo unspecified) needs its melting point filled in; supply it.
Response: 184 to 186 °C
